Molecular target: T1, human GPC3 (human, UniProt P51654 25-563)
T1 construct: range 25-563; soluble analyte; also called soluble human GPC3; glypican 3
T1 sequence (P51654 25-563 limits assumed): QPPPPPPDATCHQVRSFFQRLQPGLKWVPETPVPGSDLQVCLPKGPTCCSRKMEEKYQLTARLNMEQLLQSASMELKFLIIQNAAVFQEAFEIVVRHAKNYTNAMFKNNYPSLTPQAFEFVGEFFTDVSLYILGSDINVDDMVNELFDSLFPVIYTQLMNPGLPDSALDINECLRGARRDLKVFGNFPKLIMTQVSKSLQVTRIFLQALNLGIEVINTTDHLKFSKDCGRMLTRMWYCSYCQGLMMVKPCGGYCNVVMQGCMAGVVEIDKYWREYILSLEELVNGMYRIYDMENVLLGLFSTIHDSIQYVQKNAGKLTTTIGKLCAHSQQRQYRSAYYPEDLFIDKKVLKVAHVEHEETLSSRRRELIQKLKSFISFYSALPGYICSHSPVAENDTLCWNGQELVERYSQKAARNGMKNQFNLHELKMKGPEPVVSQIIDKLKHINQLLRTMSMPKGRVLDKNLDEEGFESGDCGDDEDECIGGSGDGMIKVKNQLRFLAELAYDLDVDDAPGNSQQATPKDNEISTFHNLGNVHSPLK
Experiment: SPR
Each entry falls in a class defined on Kd; the bands are bin A = under 0.9 nM, bin B = from 0.9 nM up to 4 nM, bin C = 4 nM and over

In: Which Kd category applies to H0610-G1dh/none-Hi-Kn010G3/L0206-k0 (antibody, V domains shown, one-arm) VH: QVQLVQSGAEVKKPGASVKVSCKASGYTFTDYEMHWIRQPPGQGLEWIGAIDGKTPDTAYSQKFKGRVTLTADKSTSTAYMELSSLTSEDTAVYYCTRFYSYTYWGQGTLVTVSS VL: DIVMTQSPLSLPVTPGEPASISCRSSQSPVHSNRNTYLHWYQQKPGQAPRLLIYKVSNRFSGVPDRFSGSGSGTDFTLKISRVEAEDVGVYYCYQGTQVPYTFGQGTKLEIKR here?
Out: bin A

In: Which Kd category applies to H0610-G1dh/none-Hi-Kn010G3/TR01L020-k0 (antibody, V domains shown, one-arm) VH: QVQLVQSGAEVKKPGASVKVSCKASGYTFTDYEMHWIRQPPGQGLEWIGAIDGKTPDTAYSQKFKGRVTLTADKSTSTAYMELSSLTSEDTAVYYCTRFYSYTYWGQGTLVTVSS VL: DIVMTQSPLSLPVTPGEPASISCQASESPVHSNRNTYIQWYLQKPGQSPQLLIYKVSNRFSGVPDRFSGSGSGTDFTLKISRVEAEDVGVYYCYQGTQVPYTFGQGTKLEIK here?
Out: bin A

In: Which Kd category applies to H0610-G1dh/none-Hi-Kn010G3/L0218-k0 (antibody, V domains shown, one-arm) VH: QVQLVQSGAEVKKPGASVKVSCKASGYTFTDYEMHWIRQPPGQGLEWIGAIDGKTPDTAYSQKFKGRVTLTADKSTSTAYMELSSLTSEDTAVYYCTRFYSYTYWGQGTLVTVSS VL: DIVMTQSPLSLPVTPGEPASISCRSSQSLVHSNRNTYLHWYQQKPGQAPRLLIYKVSNRFRGVPDRFSGSGSGTDFTLKISRVEAEDVGVYYCYQGTQVPYTFGQGTKLEIK here?
Out: bin B

In: Which Kd category applies to H0610-G1dh/none-Hi-Kn010G3/L0139-k0 (antibody, V domains shown, one-arm) VH: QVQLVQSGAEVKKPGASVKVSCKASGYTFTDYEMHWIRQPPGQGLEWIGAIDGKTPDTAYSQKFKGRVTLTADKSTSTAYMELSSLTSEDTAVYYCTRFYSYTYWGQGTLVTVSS VL: DIVMTQSPLSLPVTPGEPASISCRSSQSLVHSNRNTYLHWYQQKPGQAPRLLIYKVSNRFIGVPDRFSGSGSGTDFTLKISRVEAEDVGVYYCGQGTQVPYTFGQGTKLEIK here?
Out: bin C

In: Which Kd category applies to GCH094-G1dh/none-Hi-Kn010G3/L0011-k0 (antibody, V domains shown, one-arm) VH: QVQLVQSGAEVKKPGASVTVSCKASGYTFTDYEMHWVRQAPGEGLEWMGAIDGETPDTAYSEKFKGRVTLTADKSTSTAYMELSSLTSEDTAVYYCTRFYSYTYWGQGTLVTVSS VL: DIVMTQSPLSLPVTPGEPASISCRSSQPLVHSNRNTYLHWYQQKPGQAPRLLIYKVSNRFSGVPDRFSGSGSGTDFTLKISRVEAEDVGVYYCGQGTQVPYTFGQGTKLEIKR here?
Out: bin B

In: Which Kd category applies to H0610-G1dh/none-Hi-Kn010G3/L0175-k0 (antibody, V domains shown, one-arm) VH: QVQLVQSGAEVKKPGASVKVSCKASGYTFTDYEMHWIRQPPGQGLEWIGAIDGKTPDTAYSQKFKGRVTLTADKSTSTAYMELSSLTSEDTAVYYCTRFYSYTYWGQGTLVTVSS VL: DIVMTQSPLSLPVTPGEPASISCRSSQSLVHSNRNTYLHWYQQKPGQAPRLLIYKVSNRFSGVPDRFSGSGSGTDFTLKISRVEAEDVGVYYCGQGTQHPYTFGQGTKLEIK here?
Out: bin B

In: Which Kd category applies to H0610-G1dh/none-Hi-Kn010G3/TR01L019-k0 (antibody, V domains shown, one-arm) VH: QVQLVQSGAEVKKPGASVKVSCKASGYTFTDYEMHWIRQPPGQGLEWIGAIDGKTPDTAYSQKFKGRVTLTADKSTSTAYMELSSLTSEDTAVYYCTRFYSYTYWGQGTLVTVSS VL: DIVMTQSPLSLPVTPGEPASISCQASESPVHSNRNTYLHWYLQKPGQSPQLLIYKVSNRFSGVPDRFSGSGSGTDFTLKISRVEAEDVGVYYCYQGTQVPYTFGQGTKLEIK here?
Out: bin B

In: Which Kd category applies to H0610-G1dh/none-Hi-Kn010G3/L0258-k0 (antibody, V domains shown, one-arm) VH: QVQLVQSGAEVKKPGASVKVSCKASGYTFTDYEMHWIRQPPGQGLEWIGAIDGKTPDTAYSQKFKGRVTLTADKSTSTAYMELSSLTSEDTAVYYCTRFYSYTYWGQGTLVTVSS VL: DIVMTQSPLSLPVTPGEPASISCRSSQPPVHSNRNTYLHWYQQKPGQAPRLLIYKVSNRFSGVPDRFSGSGSGTDFTLKISRVEAEDVGVYYCTQGTQVPYTFGQGTKLEIK here?
Out: bin A

In: Which Kd category applies to GCH039-G1dh/none-Hi-Kn010G3/L0000-k0 (antibody, V domains shown, one-arm) VH: QVQLVQSGAEVKKPGASVKVSCKASGYTFTDYEMHWIRQPPGQGLEWIGAIDGKTPDTAYSQKFKGRVTLTADKSTSTAYMELESLTSEDTAVYYCTRFYSYTYWGQGTLVTVSS VL: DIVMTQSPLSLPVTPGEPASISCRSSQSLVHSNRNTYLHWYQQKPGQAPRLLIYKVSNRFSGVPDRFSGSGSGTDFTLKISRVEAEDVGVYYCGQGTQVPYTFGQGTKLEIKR here?
Out: bin C

In: Which Kd category applies to H0610-G1dh/none-Hi-Kn010G3/L0246-k0 (antibody, V domains shown, one-arm) VH: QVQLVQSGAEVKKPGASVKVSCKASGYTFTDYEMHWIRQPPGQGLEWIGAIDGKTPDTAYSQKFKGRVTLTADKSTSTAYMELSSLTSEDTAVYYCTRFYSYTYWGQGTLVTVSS VL: DIVMTQSPLSLPVTPGEPASISCRSSQSPVHSNRNTYIQWYQQKPGQAPRLLIYKVSNRFSGVPDRFSGSGSGTDFTLKISRVEAEDVGVYYCSQGTQVPYTFGQGTKLEIK here?
Out: bin A

Numbers sourced from patent US20250066503A1.
